# test_details: Cytotoxicity against human drug-resistant A549/T cells assessed as reduction in cell viability incubated for 72 hrs by CCK-8 assay
# Type: functional, cell-based
# measurement_conditions: A549, 72 h
Mark fulfilled only for IC50 values smaller than 1000 nM; exact matches and larger values are not fulfilled.

{"columns": ["compound", "assigned_class"],
 "data": [
  ["CC(=O)O[C@H]1C[C@H]2OC[C@@]2(OC(C)=O)[C@H]2[C@H](OC(=O)c3ccccc3)C3C[C@H](OC(=O)[C@H](O)[C@@H](NC(=O)c4ccc(C)cc4)c4ccccc4)C(C)=C([C@H]4OC(=O)O[C@@H]4[C@]12C)C3(C)C (some centres not stated)", "fulfilled"]
]}

IC50 under 1000 nM? Item: CC(=O)O[C@H]1C[C@H]2OC[C@@]2(OC(C)=O)[C@H]2[C@H](OC(=O)c3ccccc3)C3C[C@H](OC(=O)[C@H](O)[C@@H](NC(=O)c4ccccc4)c4ccccc4)C(C)=C([C@H]4OC(=O)O[C@@H]4[C@]12C)C3(C)C (some centres not stated) fulfilled

IC50 under 1000 nM? Item: `CC(=O)O[C@H]1C(=O)[C@@]2(C)[C@H]([C@H](OC(=O)c3ccccc3)[C@]3(O)C[C@H](OC(=O)[C@H](O)[C@@H](NC(=O)c4ccccc4)c4ccccc4)C(C)=C1C3(C)C)[C@]1(OC(C)=O)CO[C@@H]1C[C@@H]2O` not fulfilled

IC50 under 1000 nM? Item: CC(=O)O[C@H]1C[C@H]2OC[C@@]2(OC(C)=O)[C@H]2[C@H](OC(=O)c3ccccc3)C3C[C@H](OC(=O)[C@H](O)[C@@H](NC(=O)c4ccccc4F)c4ccccc4)C(C)=C([C@H]4OC(=O)O[C@@H]4[C@]12C)C3(C)C (some centres not stated) not fulfilled

IC50 under 1000 nM? Item: CC(=O)O[C@H]1C[C@H]2OC[C@@]2(OC(C)=O)[C@H]2[C@H](OC(=O)c3ccccc3)C3C[C@H](OC(=O)[C@H](O)[C@@H](NC(=O)c4cccc(Br)c4)c4ccccc4)C(C)=C([C@H]4OC(=O)O[C@@H]4[C@]12C)C3(C)C (some centres not stated) not fulfilled

IC50 under 1000 nM? Item: CC(=O)O[C@H]1C[C@H]2OC[C@@]2(OC(C)=O)[C@H]2[C@H](OC(=O)c3ccccc3)C3C[C@H](OC(=O)[C@H](O)[C@@H](NC(=O)c4cccc(F)c4)c4ccccc4)C(C)=C([C@H]4OC(=O)O[C@@H]4[C@]12C)C3(C)C (some centres not stated) not fulfilled

###

Recorded pIC50 for the following molecules
# test_details: Cytotoxicity against human drug-resistant A549/T cells assessed as reduction in cell viability incubated for 72 hrs by CCK-8 assay
# Format: functional, cell-based
# measurement_conditions: A549, 72 h
Formally, pIC50 is defined as -log10 of the concentration c, with c in mol/L.

{"columns": ["molecule", "pIC50"],
 "data": [
  ["CC(=O)O[C@H]1C[C@H]2OC[C@@]2(OC(C)=O)[C@H]2[C@H](OC(=O)c3ccccc3)C3C[C@H](OC(=O)[C@H](O)[C@@H](NC(=O)c4ccc(F)c(F)c4)c4ccccc4)C(C)=C([C@H]4OC(=O)O[C@@H]4[C@]12C)C3(C)C (some centres not stated)", 5.54]
]}

Could you tell me which pIC50 is on file for COc1cccc(C(=O)N[C@@H](c2ccccc2)[C@@H](O)C(=O)O[C@H]2CC3[C@@H](OC(=O)c4ccccc4)[C@@H]4[C@]5(OC(C)=O)CO[C@@H]5C[C@H](OC(C)=O)[C@@]4(C)[C@H]4OC(=O)O[C@@H]4C(=C2C)C3(C)C)c1 (some centres not stated) ? 5.52
